# assayDetails: inhibitors of mutant huntingtin aggregation, primary screen, imaging, exon1htt(103Q)mCFP cells, high-content imaging (AID 483);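 further: compound exposure lasted 3 days before fixation; percent of the per-plate median nuclei count of sample wells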
# measurementParameters: exon1htt(103Q)mCFP cell line, aggregate imaging, at 2 µM; measured here: cell count, toxicity
measurementType: nuclei count (%)
Numbers only, in %.

As a guide, the following entries are already answered.
smilesData | observedMeasurement
O=C(NCCN1CCCCC1)c1ccc(=O)oc1 | 90.9
CCCCCC(=O)N1CC2(CC)CN(C(=O)CCCCC)CC(CC)(C1)C2=O | 90
CCn1cc(C(=O)O)c(=O)c2cc(F)c(N3CCNCC3)cc21 | 87.7
CCCn1c(=O)c2[nH]c(C3CCCC3)nc2n(CCC)c1=O | 92.4
CCN(CC)C(=O)c1sc2nc(-c3cccs3)cc(-c3cccs3)c2c1N | 90

Hi there! I need nuclei count for each item below, if you can.
1. CCn1cc(C(=O)O)c(=O)c2cc(F)c(N3CCNCC3)nc21
2. CCCCC(=O)O[C@H]1CC[C@H]2[C@@H]3CCc4cc(O)ccc4[C@H]3CC[C@]12C

-- reply
88.6
88.9
